Values were extracted from paper PMC11108815.

ASSAY EXPLANATION: Pharmacokinetics in rat plasma
Assay type: in vivo, Wistar rats
RECORDED CONDITIONS: Wistar, rat, plasma, po, 100 mg/kg, Cmax, FT-C: normal (blank) rats, oral FT 100 mg kg^−1, n = 6
Label scheme for Cmax: lower than 10 ng/mL is false, 10 ng/mL and above is true.

C[C@@H]1O[C@@H](OC[C@H]2O[C@@H](Oc3c(-c4ccc(O)c(O)c4)oc4cc(O)cc(O)c4c3=O)[C@H](O)[C@@H](O)[C@@H]2O)[C@H](O)[C@H](O)[C@H]1O; false
O=C(O)/C=C/c1ccc(O)c(O)c1; false
O=C(/C=C/c1ccc(O)c(O)c1/C=C/c1ccc(O)c(O)c1)O[C@H](Cc1ccc(O)c(O)c1)C(=O)O; false
O=C(/C=C/c1ccc(O)c(O)c1)O[C@H](Cc1ccc(O)c(O)c1)C(=O)O; true
O=C(/C=C/c1ccc(O)c2c1[C@H](C(=O)O)[C@@H](c1ccc(O)c(O)c1)O2)O[C@H](Cc1ccc(O)c(O)c1)C(=O)O; true
